tested on: CAKI-1 renal; test: NCI-60 one-dose screen, 48 h (100 = growth as untreated, 0 = no growth, -100 = all killed); conditions: 10 µM unless noted
Compounds without any hit were thinned out: in the full panel of roughly 83,000, 20% have a hit.
Exercise: state measured growth for each of the compounds provided.
Answers are plain numbers, in %.

Use these answered entries as a reference point.
> print(dat)
                                   compound  result.units  measurement
1          CCOC(=O)Cc1csc2nc(-c3ccccc3)nn12             %          111
2  O=C(CCl)N1c2cccc3cccc(c23)N(C(=O)CCl)C1c1cn(-c2ccccc2)nc1-c1cccc([N+](=O)[O-])c1             %         92.5
3  CN(C)c1ccc2cc(-c3ccc(Cl)c(Cl)c3)c(N)nc2c1             %         39.5
4  COc1ccc(C2CC(c3ccccc3)=NN2c2nc(C)c(C(C)=O)s2)cc1 (centres undefined)             %         86.6
5  O=C1Nc2ccccc2SC1c1ccccc1Cl (centres undefined)             %         71.9

Fill in growth for each of the 3 compounds listed.
1. N=C(N)c1ccc(-c2ccc(-c3ccc(Cl)cc3Cl)o2)nc1
2. O=C(O)CC1Sc2ccccc2NC1=O (centres undefined)
3. Nc1ccn(C2OC(F)(CO)C(O)C2F)c(=O)n1 (centres undefined)

Return:
1: 53.8; 2: 72.8; 3: 35.6

Enquiry: Please report the recorded growth for C=C1C(=O)O[C@H]2[C@H]1CC/C(COC(=O)/C=C\C(=O)NCc1ccc(Cn3c(=O)sn(-c4ccc(Cl)cc4)c3=O)cc1)=C\CC[C@@]1(C)O[C@@H]21 .
Return: -69.9

Values compiled from PubChem BioAssay (NCI).
